Taken from ChEMBL document CHEMBL2057136.

Target: Phosphatidylinositol 4,5-bisphosphate 3-kinase catalytic subunit alpha isoform (Homo sapiens)
Sequence (P42336 whole entry, canonical isoform): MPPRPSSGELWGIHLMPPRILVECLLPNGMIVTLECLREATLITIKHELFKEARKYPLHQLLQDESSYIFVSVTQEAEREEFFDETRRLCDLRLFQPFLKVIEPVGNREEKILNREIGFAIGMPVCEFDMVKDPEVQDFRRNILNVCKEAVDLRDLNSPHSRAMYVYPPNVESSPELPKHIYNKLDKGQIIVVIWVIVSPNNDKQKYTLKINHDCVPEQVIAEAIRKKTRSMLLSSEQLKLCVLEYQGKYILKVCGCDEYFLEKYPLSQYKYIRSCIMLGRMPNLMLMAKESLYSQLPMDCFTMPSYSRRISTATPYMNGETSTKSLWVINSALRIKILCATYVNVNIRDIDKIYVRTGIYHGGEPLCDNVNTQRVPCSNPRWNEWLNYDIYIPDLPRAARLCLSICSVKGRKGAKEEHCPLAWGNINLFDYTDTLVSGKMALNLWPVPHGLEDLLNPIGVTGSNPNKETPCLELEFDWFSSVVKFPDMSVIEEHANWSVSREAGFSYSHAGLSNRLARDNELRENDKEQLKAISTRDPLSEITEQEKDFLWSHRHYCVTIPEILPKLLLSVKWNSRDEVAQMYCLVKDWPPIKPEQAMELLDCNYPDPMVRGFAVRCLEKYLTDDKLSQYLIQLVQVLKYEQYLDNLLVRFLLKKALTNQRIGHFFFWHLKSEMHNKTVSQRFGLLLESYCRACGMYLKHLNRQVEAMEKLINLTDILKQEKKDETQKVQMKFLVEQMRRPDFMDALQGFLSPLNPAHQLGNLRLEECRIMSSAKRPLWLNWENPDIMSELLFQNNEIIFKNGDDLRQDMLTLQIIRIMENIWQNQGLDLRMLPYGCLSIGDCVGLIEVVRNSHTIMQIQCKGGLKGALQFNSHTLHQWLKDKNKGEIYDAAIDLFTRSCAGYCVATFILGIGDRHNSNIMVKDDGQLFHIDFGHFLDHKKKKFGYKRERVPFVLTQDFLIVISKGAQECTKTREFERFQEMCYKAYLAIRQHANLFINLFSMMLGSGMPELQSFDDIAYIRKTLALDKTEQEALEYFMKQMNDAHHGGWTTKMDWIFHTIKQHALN
Experiment: Inhibition of PI3Kalpha using [gamma32P]ATP by radiometric kinase assay
pIC50: −log10 of the molar value.
Experimental Endpoint: pIC50

P = N=C1/C(=C\c2ccc(O)c(O)c2)C(=O)N=C2SC(c3ccc(O)cc3)=NN12
Q = N=C1/C(=C\c2coc3ccccc3c2=O)C(=O)N=C2SC(c3ccc(O)cc3)=NN12
Exercise: Recorded pIC50 values differ for P and Q ; which one is higher? Label of pick, please.
Key: P
(P: 6.52, Q: 4.99)

###

Molecular target: Dual specificity mitogen-activated protein kinase kinase 2 (Homo sapiens)
Sequence (P36507 whole entry): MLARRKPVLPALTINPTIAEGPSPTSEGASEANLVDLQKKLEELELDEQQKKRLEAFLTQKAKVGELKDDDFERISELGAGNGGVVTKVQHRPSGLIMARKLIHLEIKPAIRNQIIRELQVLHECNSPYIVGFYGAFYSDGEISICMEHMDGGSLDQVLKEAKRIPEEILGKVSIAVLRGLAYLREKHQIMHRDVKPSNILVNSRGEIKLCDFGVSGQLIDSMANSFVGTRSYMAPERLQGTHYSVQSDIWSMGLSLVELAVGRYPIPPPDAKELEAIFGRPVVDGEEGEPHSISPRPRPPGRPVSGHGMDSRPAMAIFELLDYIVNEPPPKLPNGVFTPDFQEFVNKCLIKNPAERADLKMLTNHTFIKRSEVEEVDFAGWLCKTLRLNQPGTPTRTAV
Test: Inhibition of MEK2 using [gamma32P]ATP by radiometric kinase assay
Experimental Endpoint: IC50 (nM)
Just the number please, in nM, no unit attached.

Exercise: Requested field: IC50. Item: "N=C1/C(=C\c2ccc(O)c(O)c2)C(=O)N=C2SC(c3ccc(O)cc3)=NN12"
Key: 1300

###

Target: Dual specificity mitogen-activated protein kinase kinase 1 (Homo sapiens, UniProt Q02750)
Sequence (Q02750 whole entry): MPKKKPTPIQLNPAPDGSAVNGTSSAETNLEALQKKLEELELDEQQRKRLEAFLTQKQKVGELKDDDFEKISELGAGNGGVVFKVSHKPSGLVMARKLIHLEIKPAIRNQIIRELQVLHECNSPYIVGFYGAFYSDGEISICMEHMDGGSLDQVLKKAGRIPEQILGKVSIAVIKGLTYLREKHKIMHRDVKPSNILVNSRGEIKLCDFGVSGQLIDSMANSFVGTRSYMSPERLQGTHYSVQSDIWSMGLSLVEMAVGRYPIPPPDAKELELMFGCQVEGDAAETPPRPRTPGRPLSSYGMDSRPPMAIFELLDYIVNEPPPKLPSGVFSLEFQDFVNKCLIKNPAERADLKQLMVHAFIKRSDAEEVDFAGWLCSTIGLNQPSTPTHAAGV
Assay: Inhibition of MEK1 using [gamma32P]ATP by radiometric kinase assay
Experimental Endpoint: IC50 (µM)

P = O=C(O)c1cccc(N2C(=O)/C(=C\c3cnc4ccccc4n3)SC2=S)c1
Q = N=C1/C(=C\c2coc3ccccc3c2=O)C(=O)N=C2SC(c3ccc(O)cc3)=NN12
R = N=C1/C(=C\c2ccc(O)c(O)c2)C(=O)N=C2SC(c3ccc(O)cc3)=NN12
S = OCCNc1ncnc2oc(-c3ccccc3)c(-c3ccccc3)c12
Exercise: Arrange these 4 compounds in increasing order of IC50. Answer format: list of labels, ordered as asked.
Key: R, Q, S, P
